Source listed as the supplement of paper PMC11061612.

# Tested on: PANC-04-03 (Pancreatic Carcinoma)
# Assay notes: Bliss excess, mean over the matrix (fraction); higher = more synergy;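 also: after 72 h of two-drug dosing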
Recorded Bliss excess values for a group of compounds are listed next.
// no unit string in output, number only

[[record]]
compound = "COc1cccc(OCCCN)c1-c1cc(Nc2cnc(C#N)cn2)n[nH]1 [Prexasertib] + CCc1c2c(nc3ccc(O)cc13)-c1cc3c(c(=O)n1C2)COC(=O)[C@]3(O)CC [SN-38] (first compound max 1 µM, 7x7, partner max 0.3 µM)"
recorded_number = -0.067


Consider now this further compound.
## Task Give the measured Bliss excess of Cc1cc2ncnn2cc1Nc1ncc2c(n1)n(C1CCOCC1)c(=O)n2C [AZD7648] + CN(C)CCCOc1ccc(-c2ccc3ncc4c(c3c2)n(C2CCOCC2)c(=O)n4C)cn1 [AZD0156] (first compound max 10 µM, 7x7, partner max 1 µM) .
## Result 0.0016

====

# Test system: BT-549 (Breast Carcinoma)
# Assay notes: Bliss excess, mean over the matrix (fraction); higher = more synergy
Value type: Bliss excess
Give a plain numeric answer without units written out.

Recorded results for 3 compounds are shown here.
[[record]]
compound = "CS(=O)(=O)CCNCc1ccc(-c2ccc3ncnc(Nc4ccc(OCc5cccc(F)c5)c(Cl)c4)c3c2)o1 [Lapatinib] + C[C@@H](Oc1cc(-c2cnn(C3CCNCC3)c2)cnc1N)c1c(Cl)ccc(F)c1Cl [Crizotinib] (first compound max 10 µM, 7x7, partner max 10 µM)"
recorded_number = -0.0916

[[record]]
compound = "COc1cccc(OCCCN)c1-c1cc(Nc2cnc(C#N)cn2)n[nH]1 [Prexasertib] + C=CCn1c(=O)c2cnc(Nc3ccc(N4CCN(C)CC4)cc3)nc2n1-c1cccc(C(C)(C)O)n1 [AZD1775] (first compound max 1 µM, partner max 1 µM)"
recorded_number = 0.0433

[[record]]
compound = "CN(CCO)CC[C@H](CSc1ccccc1)Nc1ccc(S(=O)(=O)NC(=O)c2ccc(N3CCC([C@@H](O)c4ccccc4-c4ccc(Cl)cc4)CC3)cc2)cc1S(=O)(=O)C(F)(F)F [AZD4320] + Cc1cc2ncnn2cc1Nc1ncc2c(n1)n(C1CCOCC1)c(=O)n2C [AZD7648] (first compound max 1 µM, 7x7, partner max 10 µM)"
recorded_number = -0.0213


## Task I would be grateful if you could share the reported Bliss excess for Cc1cc2ncnn2cc1Nc1ncc2c(n1)n(C1CCOCC1)c(=O)n2C [AZD7648] + COc1cc([C@@H]2c3cc4c(cc3[C@@H](O[C@@H]3O[C@@H]5CO[C@@H](C)O[C@H]5[C@H](O)[C@H]3O)[C@H]3COC(=O)[C@H]23)OCO4)cc(OC)c1O [Etoposide] (first compound max 10 µM, 7x7, partner max 10 µM) .
## Result 0.0306

## Task Look at this compound and give its reported Bliss excess. N#Cc1cnc(Nc2cc(NC[C@H]3CNCCO3)c(C(F)(F)F)cn2)cn1 [SRA737] + O=c1[nH]cc(F)c(=O)[nH]1 [5-Fluorouracil] (first compound max 10 µM, 7x7, partner max 20 µM)
## Result 0.0358

## Task Give the measured Bliss excess of N#Cc1cnc(Nc2cc(NC[C@H]3CNCCO3)c(C(F)(F)F)cn2)cn1 [SRA737] + C=CCn1c(=O)c2cnc(Nc3ccc(N4CCN(C)CC4)cc3)nc2n1-c1cccc(C(C)(C)O)n1 [AZD1775] (first compound max 10 µM, partner max 1 µM) .
## Result 0.0819

## Task What does the data say about its Bliss excess? Entry: NC1(C(=O)N[C@@H](CCO)c2ccc(Cl)cc2)CCN(c2ncnc3[nH]ccc23)CC1 [Capivasertib] + COc1nnc2ccc(N3CCC(c4ccc(OCCN5CCN(C)C(=O)[C@H]5C)cc4)CC3)nn12 [AZD5153] (first compound max 10 µM, 7x7, partner max 1 µM)
## Result 0.0602
